assay: ATG_NFI_CIS: Attagene CIS-FACTORIAL HepG2 Assay for human Nuclear Factor I (NFI) (AID 2282989); conditions: HepG2 cis-regulatory reporter, NFI response element transcription; actives raise or lower the signal
Activity calls are given as the source filed them. The calls were made as follows: active = hit-call score of the fitted dose curve at least 0.9, where 1 is the maximum; inactive = score below 0.9.
measured_attribute: outcome

Answered examples (6):
Need outcome of C=CCOCC(O)CO (stereo not drawn) , thanks. inactive

Need outcome of CCCCCCCCCCOC(=O)c1ccccc1C(=O)OCCCCCCCC , thanks. inactive

Need outcome of CC(C)C(=O)OCC=Cc1ccccc1 , thanks. inactive

Need outcome of CCO[Si](CC)(OCC)OCC , thanks. inactive

Need outcome of COC(=O)c1cccc(C(=O)OC)c1 , thanks. inactive

Need outcome of CCCC1CCC(=O)CC1 , thanks. inactive

---
Need outcome of CCCCCCCC(=O)N(C)C , thanks. inactive

Need outcome of O=C(O)c1ccco1 , thanks. inactive
